Recorded inhibition values for a group of compounds are listed next.
target: Fatty acid synthase (Homo sapiens); test: inhibition of human FAS-TE enzyme activity – biochemical, fluorescence intensity, uHTS, primary screen (AID 602261); settings: recombinant FAS-TE, OMFH fluorogenic substrate, fluorescence endpoint; at 15 µM; hits give high values;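 further: 0% = DMSO with enzyme and 100% = substrate without enzyme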
Screen size: about 360,000 compounds; about 2,400 (0.67%) were called active. The entries come from a sample that favours actives as a whole.
Respond with the bare value in %.

Known inhibition results, listed for orientation:
compound="COc1cc(C2C(C(=O)c3cccs3)=C(O)C(=O)N2CCN2CCOCC2)ccc1OCCC(C)C (stereo not given)" assayedtarget="Fatty acid synthase (Homo sapiens)" resultunits=% measuredvalue=0.8
compound=Cc1ccc(S(=O)(=O)n2cnc3ccccc32)c(C)c1 assayedtarget="Fatty acid synthase (Homo sapiens)" resultunits=% measuredvalue=-4.2
compound=Cc1cc(C(=O)N/N=C/c2cc([N+](=O)[O-])cc(C)c2O)n[nH]1 assayedtarget="Fatty acid synthase (Homo sapiens)" resultunits=% measuredvalue=65.7
compound=O=C(Nc1ccc2ccccc2c1)/C(=C/c1cccc(Br)c1)NC(=O)c1ccco1 assayedtarget="Fatty acid synthase (Homo sapiens)" resultunits=% measuredvalue=52.3
compound=O=C(NCc1ccco1)/C(=C/c1ccco1)NC(=O)c1ccccc1 assayedtarget="Fatty acid synthase (Homo sapiens)" resultunits=% measuredvalue=-4.1

Value lookup for inhibition; key = COc1ccc(C(=O)N(C)CC(O)c2ccccc2)cc1OC1CCN(C(C)=O)CC1 (stereo not given) 0.7

Please answer likewise for COC(=O)CCC(=O)N1CCCC(CO)(Cc2ccccc2)C1 (stereo not given) -5.2

Please answer likewise for `Cc1cc(C)n2nc(CNS(=O)(=O)c3c(F)c(F)c(F)c(F)c3F)nc2n1` 12.1

Please answer likewise for `O=S(=O)(Nc1cccc(Oc2ccc(Cl)cc2)n1)c1ccc(F)cc1` 8.1

Please answer likewise for `CCN(CC)c1ccc(S(=O)(=O)N2CCOCC2)cc1NC(=O)CSc1cccc[n+]1[O-]` -33.9

---

biological target: Fatty acid synthase (Homo sapiens) (UniProt P49327); assay: inhibition of human FAS-TE enzyme activity – biochemical, fluorescence intensity, uHTS, primary screen (AID 602261); settings: recombinant FAS-TE, OMFH fluorogenic substrate, fluorescence endpoint; at 15 µM; hits give high values;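 further: 0% = DMSO with enzyme and 100% = substrate without enzyme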
Sequence (P49327 whole entry, looked up): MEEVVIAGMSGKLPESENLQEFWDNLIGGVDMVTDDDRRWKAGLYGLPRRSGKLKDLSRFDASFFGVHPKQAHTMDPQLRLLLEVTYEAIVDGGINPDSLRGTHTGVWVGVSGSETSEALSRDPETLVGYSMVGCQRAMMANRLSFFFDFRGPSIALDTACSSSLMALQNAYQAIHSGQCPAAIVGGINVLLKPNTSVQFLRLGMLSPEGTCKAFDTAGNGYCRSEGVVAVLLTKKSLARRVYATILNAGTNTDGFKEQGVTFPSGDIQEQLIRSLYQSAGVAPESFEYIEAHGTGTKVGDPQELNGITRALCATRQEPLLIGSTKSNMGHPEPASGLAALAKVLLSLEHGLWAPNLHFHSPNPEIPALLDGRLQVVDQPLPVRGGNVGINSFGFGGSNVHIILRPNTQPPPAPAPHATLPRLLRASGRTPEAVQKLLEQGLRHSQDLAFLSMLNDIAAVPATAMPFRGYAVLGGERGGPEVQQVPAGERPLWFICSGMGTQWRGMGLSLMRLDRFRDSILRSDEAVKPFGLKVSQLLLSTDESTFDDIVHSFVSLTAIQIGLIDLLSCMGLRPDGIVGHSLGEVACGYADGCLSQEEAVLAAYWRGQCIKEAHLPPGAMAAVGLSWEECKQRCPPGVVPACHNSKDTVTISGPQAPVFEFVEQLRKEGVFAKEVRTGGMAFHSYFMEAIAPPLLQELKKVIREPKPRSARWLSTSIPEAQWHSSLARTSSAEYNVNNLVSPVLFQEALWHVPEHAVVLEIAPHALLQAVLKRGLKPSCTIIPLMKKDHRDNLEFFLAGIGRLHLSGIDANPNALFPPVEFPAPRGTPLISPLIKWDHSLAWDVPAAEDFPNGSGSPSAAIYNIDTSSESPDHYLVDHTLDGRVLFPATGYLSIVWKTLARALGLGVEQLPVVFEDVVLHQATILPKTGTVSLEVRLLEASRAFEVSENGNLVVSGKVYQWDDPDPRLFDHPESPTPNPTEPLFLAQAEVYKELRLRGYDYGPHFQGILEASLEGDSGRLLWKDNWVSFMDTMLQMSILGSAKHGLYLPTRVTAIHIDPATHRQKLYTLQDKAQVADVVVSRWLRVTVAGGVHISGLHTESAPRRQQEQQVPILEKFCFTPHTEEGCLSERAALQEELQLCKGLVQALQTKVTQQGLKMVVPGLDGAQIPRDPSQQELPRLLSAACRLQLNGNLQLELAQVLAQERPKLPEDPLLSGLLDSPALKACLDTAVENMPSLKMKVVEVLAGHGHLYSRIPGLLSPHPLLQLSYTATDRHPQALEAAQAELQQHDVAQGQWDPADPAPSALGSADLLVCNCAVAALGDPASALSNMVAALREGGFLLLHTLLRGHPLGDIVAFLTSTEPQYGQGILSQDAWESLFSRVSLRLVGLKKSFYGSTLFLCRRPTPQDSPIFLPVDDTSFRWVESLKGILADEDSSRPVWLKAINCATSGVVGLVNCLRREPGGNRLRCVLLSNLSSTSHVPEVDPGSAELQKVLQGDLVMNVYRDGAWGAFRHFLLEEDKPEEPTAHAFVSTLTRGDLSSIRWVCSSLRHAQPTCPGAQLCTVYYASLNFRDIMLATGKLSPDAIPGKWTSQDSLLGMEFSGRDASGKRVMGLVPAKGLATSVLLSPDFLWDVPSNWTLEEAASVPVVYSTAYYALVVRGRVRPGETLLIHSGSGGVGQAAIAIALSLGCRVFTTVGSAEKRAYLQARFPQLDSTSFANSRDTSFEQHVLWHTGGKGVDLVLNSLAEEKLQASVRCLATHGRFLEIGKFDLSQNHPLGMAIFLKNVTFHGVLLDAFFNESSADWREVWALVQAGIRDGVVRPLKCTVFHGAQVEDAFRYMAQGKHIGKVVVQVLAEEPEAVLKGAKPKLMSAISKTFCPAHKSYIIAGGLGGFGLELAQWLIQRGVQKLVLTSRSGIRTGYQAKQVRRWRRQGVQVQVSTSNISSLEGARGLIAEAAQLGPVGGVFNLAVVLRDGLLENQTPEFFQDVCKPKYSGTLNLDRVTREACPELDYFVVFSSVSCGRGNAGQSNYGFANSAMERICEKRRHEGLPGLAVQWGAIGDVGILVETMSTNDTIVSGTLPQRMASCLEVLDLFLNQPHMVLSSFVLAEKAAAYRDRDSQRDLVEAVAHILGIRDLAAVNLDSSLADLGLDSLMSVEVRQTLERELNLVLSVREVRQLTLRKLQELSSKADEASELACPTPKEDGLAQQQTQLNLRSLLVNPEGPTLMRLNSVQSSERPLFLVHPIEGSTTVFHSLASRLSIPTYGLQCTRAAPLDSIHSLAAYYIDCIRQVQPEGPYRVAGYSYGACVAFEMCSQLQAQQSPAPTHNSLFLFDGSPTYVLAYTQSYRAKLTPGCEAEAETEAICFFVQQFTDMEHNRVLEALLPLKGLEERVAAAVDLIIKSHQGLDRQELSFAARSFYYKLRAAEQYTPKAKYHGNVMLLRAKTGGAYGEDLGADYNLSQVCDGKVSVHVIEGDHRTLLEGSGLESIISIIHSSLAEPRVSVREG
Out of some 360,000 compounds screened, about 2,400 (0.67%) were called active. The sample as a whole holds a higher share of actives than the screen did.
inhibition vs 30%: at or above is Y, below is N.

Solved entries (count: 6):
compound=Fc1ccc(-n2c(Cc3ccccc3)nnc2SCc2nc(-c3ccc(Cl)cc3)no2)cc1 labelvalue=Y
compound=CCOC(=O)CN1C(=O)C(=O)c2cc(C)ccc21 labelvalue=N
compound=S=c1[nH]c2ccccc2c2ccccc12 labelvalue=N
compound="Cc1ccc(S(=O)(=O)NCC(=O)N(CC(=O)NCC2CCCO2)c2cccc(F)c2)cc1 (stereo not given)" labelvalue=N
compound=Cc1cc2c(cc1C)N(C(=O)CN1C(=O)c3ccccc3C1=O)C(C)(C)c1ssc(=S)c1-2 labelvalue=Y
compound=CC1(C)O[C@@H]2[C@H](O1)[C@@H](COS(=O)(=O)O)O[C@H]2n1ccc(=O)[nH]c1=O labelvalue=N

Textbook exercise: given the entry `CNC[C@@H]1Oc2c(NS(C)(=O)=O)cccc2C(=O)N([C@@H](C)CO)C[C@H]1C` , state whether its inhibition is greater than or equal to 30%. N

Please answer likewise for CC1CCN(S(=O)(=O)c2ccc(NC(=O)C3CC(=O)N(c4ccccc4)C3)cc2)CC1 (stereo not given) N

Please answer likewise for `Cc1nn(CCOc2ccc(Br)cc2)c(C)c1[N+](=O)[O-]` Y

---

biological target: Fatty acid synthase (Homo sapiens) (UniProt P49327); assay: inhibition of human FAS-TE enzyme activity – biochemical, fluorescence intensity, uHTS, primary screen (AID 602261); details: recombinant FAS-TE, OMFH fluorogenic substrate, fluorescence endpoint; at 15 µM; hits give high values;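 further: 0% = DMSO with enzyme and 100% = substrate without enzyme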
Among all 360,000 compounds or so, about 2,400 (0.67%) were called active. The entries come from a sample that favours actives as a whole.
Recorded inhibition values for a group of compounds are listed next.
Respond with the bare value in %.

Known inhibition results, listed for orientation:
compound=O=[N+]([O-])c1ccc(NS(=O)(=O)c2ccccc2)c(Cl)c1 assayedtarget="Fatty acid synthase (Homo sapiens) (UniProt P49327)" measuredvalue=-7
compound=O=[N+]([O-])c1c(NCCO)cc(Sc2nc3ccccc3s2)c2nonc12 assayedtarget="Fatty acid synthase (Homo sapiens) (UniProt P49327)" measuredvalue=83.1
compound=O=C(CP(=O)(c1ccccc1)c1ccccc1)N1CCOCC1 assayedtarget="Fatty acid synthase (Homo sapiens) (UniProt P49327)" measuredvalue=-3.5
compound="COCCNc1nc2nonc2nc1N1CCCC1c1nccs1 (stereo unspecified)" assayedtarget="Fatty acid synthase (Homo sapiens) (UniProt P49327)" measuredvalue=-8.3

Value lookup for inhibition; key = `Cc1cc(S(=O)(=O)N2CCOCC2)ccc1OCC(=O)N1CCOCC1` -2.5

Please answer likewise for `Cc1cc(C(=O)COc2ccccc2[N+](=O)[O-])c(C)n1-c1cccc(S(=O)(=O)N2CCOCC2)c1` 58.7

---

Recorded inhibition values for a group of molecules are listed next.
biological target: Fatty acid synthase (Homo sapiens) (UniProt P49327); experiment: inhibition of human FAS-TE enzyme activity – biochemical, fluorescence intensity, uHTS, primary screen (AID 602261); settings: recombinant FAS-TE, OMFH fluorogenic substrate, fluorescence endpoint; at 15 µM; hits give high values;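 further: 0% = DMSO with enzyme and 100% = substrate without enzyme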
The campaign covered roughly 360,000 compounds. About 2,400 (0.67%) were called active. Only a selection was taken, and actives are over-represented in it overall.
Respond with the bare value in %.

Known inhibition results, listed for orientation:
molecule="CCOCCOC(=O)C1=C(C)NC(=O)NC1c1ccc2c(c1)OCO2 (stereo not given)" resultunits=% measuredvalue=-6.1
molecule="CCCCOC(=O)NCN1C(=O)C2C3C=CC(C3)C2C1=O (stereo not given)" resultunits=% measuredvalue=-2.4
molecule="Cc1ccc(N2C(=O)C3N=NN(CC(=O)N4N=C(c5cccc6ccccc56)CC4c4ccccc4)C3C2=O)cc1 (stereo not given)" resultunits=% measuredvalue=83.2
molecule=Cc1ccc(C)c(NC(=O)COC(=O)CSc2ccccc2)c1 resultunits=% measuredvalue=-9.4
molecule=N#CCCN(C(=O)COC(=O)C1CCN(c2ccc(C(F)(F)F)cn2)CC1)c1ccc(F)cc1 resultunits=% measuredvalue=18.7
molecule=CCCOC(=O)c1ccc(N2C(=O)c3ccccc3C2=O)cc1 resultunits=% measuredvalue=-2.6
molecule=Cc1ccc(C)c(NC(=O)CSc2nc3c(oc4ccccc43)c(=O)n2-c2ccccc2)c1 resultunits=% measuredvalue=62.3
molecule="CC1=C(C(=O)OCC2CCCCC2)C(c2ccc(F)cc2)NC(=O)N1 (stereo not given)" resultunits=% measuredvalue=17.2

Value lookup for inhibition; key = `O=S1(=O)N=C(N(CCO)/N=C/c2ccccc2F)c2ccccc21` 0.1

Please answer likewise for O=C1C2N=NN(CC(=O)N3N=C(c4cccc5ccccc45)CC3c3ccccc3)C2C(=O)N1c1ccccc1 (stereo not given) 84.2

---

target: Fatty acid synthase (Homo sapiens); test: inhibition of human FAS-TE enzyme activity – biochemical, fluorescence intensity, uHTS, primary screen (AID 602261); details: recombinant FAS-TE, OMFH fluorogenic substrate, fluorescence endpoint; at 15 µM; hits give high values;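 further: 0% = DMSO with enzyme and 100% = substrate without enzyme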
Hit rate of the full screen: of about 360,000 compounds, about 2,400 (0.67%) were called active. The sample holds actives, similar compounds and a random draw of the others, so the mix is not that of the screen.
Recorded inhibition values for a group of molecules are listed next.
Respond with the bare value in %.

Known inhibition results, listed for orientation:
molecule=Nc1ccc(SCCN2C(=O)c3ccccc3C2=O)cc1 assayedtarget="Fatty acid synthase (Homo sapiens)" resultunits=% measuredvalue=-1.7
molecule=O=C(Nc1ccc(N2C(=O)c3cccc4cccc(c34)C2=O)cc1)c1ccc(N2CCCCC2)c([N+](=O)[O-])c1 assayedtarget="Fatty acid synthase (Homo sapiens)" resultunits=% measuredvalue=56.4
molecule="COc1cc(C2C(C(=O)OCCC#N)=C(C)NC3=C2S(=O)(=O)c2ccccc23)cc(OC)c1OC (stereo not given)" assayedtarget="Fatty acid synthase (Homo sapiens)" resultunits=% measuredvalue=-7.7
molecule=O=S1(=O)C[C@@H](N2CCN(CCO)CC2)[C@H](COCc2ccccc2)N1 assayedtarget="Fatty acid synthase (Homo sapiens)" resultunits=% measuredvalue=-9.7

Next molecule, inhibition to be filled in.
Value lookup for inhibition; key = `Cc1cccc(NC(=O)CSc2nc3c(c(=O)[nH]2)CCC3)c1C` -9.1

---

Recorded inhibition values for a group of molecules are listed next.
biological target: Fatty acid synthase (Homo sapiens) (UniProt P49327); assay: inhibition of human FAS-TE enzyme activity – biochemical, fluorescence intensity, uHTS, primary screen (AID 602261); details: recombinant FAS-TE, OMFH fluorogenic substrate, fluorescence endpoint; at 15 µM; hits give high values;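 further: 0% = DMSO with enzyme and 100% = substrate without enzyme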
The campaign covered roughly 360,000 compounds. About 2,400 (0.67%) were called active. What follows is part of a selection rich in actives, with near analogues and random picks from the rest.
Respond with the bare value in %.

molecule=COc1cc(/C=C/c2ccc(/C=C/c3cc(OC)c(OC)c(OC)c3)cc2)cc(OC)c1OC measuredvalue=8.2

Value lookup for inhibition; key = `O=S(=O)(c1ccc(F)cc1)n1ccc(-c2cnc(-c3ccccc3)s2)n1` 67.2

Please answer likewise for `CC[C@@]12C(=O)N(c3ccccc3)C(=O)N1[C@H](c1ccc(Br)cc1)[C@@H]1C(=O)N(C(C)(C)C)C(=O)[C@@H]12` 13.2

Please answer likewise for `O=C(/C=C/c1cccc([N+](=O)[O-])c1)OCC(=O)N1CCOCC1` -3.4

Please answer likewise for `COc1ccccc1-n1cnc2cc(NS(=O)(=O)c3ccccc3)ccc21` 0.1

Please answer likewise for `COc1cc(NC(=O)C2=C(C)OCCS2)c(Cl)cc1C(=O)NCCN1CCN(C)CC1` -10.2

Please answer likewise for `CC1(C)CC(=O)c2c(n(S(=O)(=O)c3ccccc3)c3ccc(NS(=O)(=O)c4ccccc4)cc23)C1` 79.6

Please answer likewise for Cc1cccc(N2C(=O)C3C(c4ccccc4)OC4(C(=O)c5ccccc5C4=O)C3C2=O)c1 (stereo unspecified) -2.5

Please answer likewise for `O=C(Cc1ccc(S(=O)(=O)N2CCOCC2)s1)NCCOc1ccccc1F` -0.5

Please answer likewise for `COc1ccc(CNC(=O)CN2CCC(n3nnc4cc(F)ccc43)CC2)cc1` 1.6

Please answer likewise for `CCN1CCN(c2nc(Nc3cc(OC)ccc3OC)nc(Nc3cc(OC)ccc3OC)n2)CC1` 32.9

Please answer likewise for `CCn1c(SCC(=O)Nc2cccc(F)c2)nnc1-c1cc2cc(Br)ccc2o1` -5.5

Please answer likewise for `Cc1nnsc1S(=O)(=O)Cc1ccccc1Cl` -6.8

Please answer likewise for `O=C(c1cccc(Cl)c1)N1CCN(Cc2ccccc2)CC1` -4.7

Please answer likewise for `COc1ccc([C@@H]2[C@@H]3C(=O)N(C(C)(C)C)C(=O)[C@@H]3[C@]3(Cc4ccccc4)C(=O)N(c4cccc(Br)c4)C(=O)N23)cc1` 89.7

Please answer likewise for Cc1cc(C)c(C2C3=C(Nc4c2c(C)nn4-c2ccccn2)c2ccccc2C3=O)c(C)c1 (stereo unspecified) 68.9

Please answer likewise for `O=C(Nc1ccnn1C1CCN(C/C=C/c2ccc(F)cc2)CC1)C1CCCC1` -0.7
